Below is a list of entries, each paired with its recorded blocking ELISA signal normalized to isotype control (=1) value.
Target: T1, His/Avi-CynoIL18BP (recombinant cynomolgus IL-18BP with His and Avi tags) (cynomolgus monkey)
T1 construct: also called cynomolgus IL-18BP-Avi-His
T1 chain: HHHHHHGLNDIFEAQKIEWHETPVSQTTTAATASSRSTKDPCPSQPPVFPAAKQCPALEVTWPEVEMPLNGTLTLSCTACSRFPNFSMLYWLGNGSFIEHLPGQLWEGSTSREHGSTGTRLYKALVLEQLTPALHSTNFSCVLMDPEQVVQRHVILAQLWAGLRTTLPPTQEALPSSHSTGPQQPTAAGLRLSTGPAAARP
Assay: blocking ELISA, competitor rhesus IL-18

{"columns": ["binder", "value.observed"],
 "data": [
  ["anti-IL18BP antibody BP-05 (antibody, human IgG1, V domains shown) VH: EVQLQQSGPELVKPGASVKIPCKASGYTFTDYNMDWVKQSHGKSLEWIGNINTNNGGTVYNQKFKDKATLTVDKSSSTAYMELRSLTSEDTAVYYCARSDTTVVASRYYALDYWGQGTSVTVSS VL: DIVLTQSPASLAMSLGKRATISCRASESVSIIGTDLIHWYQQKPGQPPKLLIYHASNLETGVPARFSGSGSRTDFTLTIDPVEEDDVAIYYCLQSRKIPPTFGGGTKLEIK", "0.989 ratio to isotype control"],
  ["anti-IL18BP antibody BP-01 (antibody, human IgG1, V domains shown) VH: QVQLQQSGPEVVRPGVSVKISCKGSGYTFTDFAMYWVKQSHAKSLEWIGVISTDNGDTSYNQKFKGKATMTVDKSSSTAYMELDRLTSEDSAIYYCARSRGPFDYWGQGTALTVSS VL: DIVMTQSHKFKSTSVGDRVNITCKASQDVGTAVAWYQQKPGQSPKLLIYWASTRHIGVPDRFTGSGSGTDFTLTIRNVQSEDLADYFCQRYSSYPWTFGGGTKLEIK", "0.795 ratio to isotype control"]
]}

Okay, now this binder:
Query :: Consider the binder shown here: anti-IL18BP antibody BP-10 (antibody, human IgG1, V domains shown) VH: QVQLQQPGAERVEPGASVRLSCKTSGYTFTNYWMHWVKQRPGQGLEWIGMIHPESGSTNNNEKFKSKATLTVDKSSSTAYMQLSSLTSEDSAVYYCARWDRGYFDYWGQGTTLTVSS VL: DIVMTQSHKFMSTSVGDRVSITCKASQDVRSTVGWYQQRPGQSPKLLIYWTSTRHTGVPDRFTGSGSGTDYTLTISSVQAEDLALYYCQQHYSTPYTFGGGTTLEIK What is its recorded blocking ELISA signal normalized to isotype control (=1)?
Result :: 0.28 ratio to isotype control

These data points were gathered from patent US20250333523A1.
